Tested on: L1210 leukemia ip in BDF1 mice, survival T/C
assay-name: NCI In Vivo Anticancer Drug Screen. Data for tumor model L1210 Leukemia (intraperitoneal) in B6D2F1 (BDF1) mice
condition-notes: endpoint: mean survival time; dose: 200.0 mg/kg/injection; schedule: Q01DX001 (ip); vehicle: saline with Tween-80; higher = longer survival
Procedure: The antitumor activity of compounds was measured in mice bearing transplantable tumors. Survival or tumor size were measured and the results are expressed as the measurement made in the treated group (T) divided by the measurement made in the vehicle treated control group (C). The tumor model used in this assay is L1210 Leukemia (intraperitoneal) in B6D2F1 (BDF1) mice
Toxic doses and inconclusive results are not listed.
quantity-name: T/C

- compound: "CSc1ccc(OC(=O)Nc2cc(Cl)ccc2C)cc1"
  T/C: "96 % of control"

input: Consider the compound `O=c1[nH]nnc2nc(CCCc3ccccc3)[nH]c12` and give its measured T/C.
output: 111 % of control

input: Consider the compound Cc1ncc(C(O)(c2ccccc2)C(C)C)n1Cc1ccccc1 (configuration not stated) and give its measured T/C.
output: 92 % of control

input: Consider the compound `N=c1c2ncn(C3CCCC3)c2ncn1O` and give its measured T/C.
output: 98 % of control

input: Consider the compound `C=CCc1ccc(OC(=O)Nc2ccc(SC)cc2)c(OC)c1` and give its measured T/C.
output: 98 % of control

input: Consider the compound CCOC(=O)C1C(=O)C(C(=O)Nc2ccccc2)C(=O)C(C(=O)OCC)C1c1ccc(OC(C)=O)cc1 (configuration not stated) and give its measured T/C.
output: 96 % of control

input: Consider the compound `Cc1ccc(Cl)cc1NC(=O)N(C)C1CCCCC1` and give its measured T/C.
output: 106 % of control

* * *

# T/C listing for each entry below
System: L1210 leukemia ip in BDF1 mice, survival T/C
assay-name: NCI In Vivo Anticancer Drug Screen. Data for tumor model L1210 Leukemia (intraperitoneal) in B6D2F1 (BDF1) mice
condition-notes: endpoint: mean survival time; dose: 200.0 mg/kg/injection; schedule: Q04DX003 (ip); vehicle: other; higher = longer survival
Toxic doses and inconclusive results are not listed.

# count of solved cases: 3
- molecule: "O=C(/C=C/c1cccc(Br)c1)c1ccc(Cl)cc1"
  target: "L1210 leukemia ip in BDF1 mice, survival T/C"
  quantity-name: "T/C"
  reading: "100 % of control"
- molecule: "CC(C)(C)P1(=O)OCC(c2ccccc2)CO1 (stereo not given)"
  target: "L1210 leukemia ip in BDF1 mice, survival T/C"
  quantity-name: "T/C"
  reading: "107 % of control"
- molecule: "CCOC(=O)C(C(=O)OCC)N(C(=O)C(Cl)Cl)c1ccccc1"
  target: "L1210 leukemia ip in BDF1 mice, survival T/C"
  quantity-name: "T/C"
  reading: "96 % of control"

input: Consider the molecule `COc1ccc(NC(Nc2ccc(OC)cc2)C(Cl)(Cl)Cl)cc1` and give its measured T/C.
output: 97 % of control

input: Consider the molecule `COC(=O)CCc1ccc(OC)cc1` and give its measured T/C.
output: 99 % of control

* * *

Test system: L1210 leukemia ip in BDF1 mice, survival T/C
assay-name: NCI In Vivo Anticancer Drug Screen. Data for tumor model L1210 Leukemia (intraperitoneal) in B6D2F1 (BDF1) mice
condition-notes: endpoint: mean survival time; dose: 100.0 mg/kg/injection; schedule: Q01DX001 (ip); vehicle: saline; higher = longer survival
Inconclusive results and toxic doses are left out.
quantity-name: T/C

# count of solved cases: 6
- compound: "CC1(C)Oc2c(ccc(O)c2CN2CCCC2)C2=C1CCCC2"
  reading: "95 % of control"
- compound: "O=C(Nc1ccc(S(=O)(=O)NC2CCCCC2)cc1)OC1CCCCCCC1"
  reading: "89 % of control"
- compound: "Oc1ccccc1N=Cc1ccccc1"
  reading: "94 % of control"
- compound: "CN(C)c1ncnc2c1ncn2C1OC(CO)C(N)C1O (configuration not stated)"
  reading: "109 % of control"
- compound: "CN1C2CC(=O)CC1C(O)C2 (configuration not stated)"
  reading: "103 % of control"
- compound: "Clc1ccc(SCN(CSc2ccc(Cl)cc2)Cc2ccccc2)cc1"
  reading: "91 % of control"

input: Consider the compound `Cc1ccc(S(=O)(=O)/C=C(\I)c2ccc([N+](=O)[O-])cc2)cc1` and give its measured T/C.
output: 97 % of control

input: Consider the compound `CCOCCNc1ccc(S(=O)(=O)c2ccc(N)cc2)cc1N` and give its measured T/C.
output: 95 % of control

input: Consider the compound `COc1ccc(-c2nc(N)nc3c2CN(CCC(=O)O)C3=O)cc1` and give its measured T/C.
output: 100 % of control

input: Consider the compound `c1ccc(-c2ccc3ncccc3c2)cc1` and give its measured T/C.
output: 97 % of control

input: Consider the compound `COc1cc2cc(C(=O)O)sc2cc1OC` and give its measured T/C.
output: 91 % of control

input: Consider the compound Cc1nn(C2CC(O)C(CO)O2)c(=O)[nH]c1=O (configuration not stated) and give its measured T/C.
output: 98 % of control

* * *

System: L1210 leukemia ip in BDF1 mice, survival T/C
assay-name: NCI In Vivo Anticancer Drug Screen. Data for tumor model L1210 Leukemia (intraperitoneal) in B6D2F1 (BDF1) mice
condition-notes: endpoint: mean survival time; dose: 50.0 mg/kg/injection; schedule: Q01DX009 (ip); vehicle: saline; higher = longer survival
Toxic doses and inconclusive results are not listed.
quantity-name: T/C

# count of solved cases: 5
- compound: "COc1ccc(Cc2nccc3c(OC)c(OC)ccc23)cc1OC"
  T/C: "102 % of control"
- compound: "NC(=O)CCP(=O)(CCC(N)=O)CCC(N)=O"
  T/C: "94 % of control"
- compound: "CCCCCCCCCCCCCCCCCC1=NC(C)CC(C)(C)O1 (stereo unspecified)"
  T/C: "93 % of control"
- compound: "O=C(O)CNCC(=O)O"
  T/C: "90 % of control"
- compound: "CC1(c2cccs2)C(=O)N(Cl)C(=O)N1Cl (stereo unspecified)"
  T/C: "106 % of control"

Consider the additional compound presented here.
input: Consider the compound CC12CCC(C1)C(C)(C)C2NCCCN1C(=O)c2ccc3c4c(ccc(c24)C1=O)C(=O)N(CCCNC1C2(C)CCC(C2)C1(C)C)C3=O (stereo unspecified) and give its measured T/C.
output: 117 % of control

* * *

System: L1210 leukemia ip in BDF1 mice, survival T/C
assay-name: NCI In Vivo Anticancer Drug Screen. Data for tumor model L1210 Leukemia (intraperitoneal) in B6D2F1 (BDF1) mice
condition-notes: endpoint: mean survival time; dose: 100.0 mg/kg/injection; schedule: Q01DX001 (ip); vehicle: saline; higher = longer survival
Toxic doses and inconclusive results are not listed.
quantity-name: T/C

# count of solved cases: 4
- molecule: "CN(C)C(c1ccccc1)c1ccccc1"
  T/C: "94 % of control"
- molecule: "N#CC(C#N)c1ccc(C(C#N)C#N)cc1"
  T/C: "122 % of control"
- molecule: "COC(=O)/C=C(\\C)Nc1ccc(Cc2ccc(N/C(C)=C/C(=O)OC)cc2)cc1"
  T/C: "95 % of control"
- molecule: "S=C(SNC1CCCCC1)SNC1CCCCC1"
  T/C: "103 % of control"

input: Consider the molecule `Cc1cc(NS(=O)(=O)c2ccc(N=Nc3c(N)nc(N)[nH]c3=O)cc2)nc(C)n1` and give its measured T/C.
output: 97 % of control

input: Consider the molecule CC12OC(c3ccccc3)(C3=C1C1CCC(C1)C3(C)C)c1ccccc12 (stereo unspecified) and give its measured T/C.
output: 103 % of control

* * *

Test system: L1210 leukemia ip in BDF1 mice, survival T/C
assay-name: NCI In Vivo Anticancer Drug Screen. Data for tumor model L1210 Leukemia (intraperitoneal) in B6D2F1 (BDF1) mice
condition-notes: endpoint: mean survival time; dose: 200.0 mg/kg/injection; schedule: Q01DX009 (ip); vehicle: Klucel (hydroxypropylcellulose) (HPC); higher = longer survival
Toxic doses and inconclusive results are not listed.
# T/C listing for each entry below

- compound: "O=C(Nc1cccc(Cl)c1Cl)Oc1ccc2ccccc2c1"
  quantity-name: "T/C"
  reading: "105 % of control"
- compound: "CCC/C=C/C(C)C"
  quantity-name: "T/C"
  reading: "92 % of control"
- compound: "NC(=O)/C(=C\\c1ccncc1)c1cccc2ccccc12"
  quantity-name: "T/C"
  reading: "97 % of control"

input: // fetch L1210 leukemia ip in BDF1 mice, survival T/C T/C for `NC(=O)c1cc(Br)ccc1O`
output: 95 % of control

input: // fetch L1210 leukemia ip in BDF1 mice, survival T/C T/C for `CC/C(=C\c1cccc([N+](=O)[O-])c1)C(=O)O`
output: 92 % of control

input: // fetch L1210 leukemia ip in BDF1 mice, survival T/C T/C for `COc1ccc(C=C2C(=O)NC(=O)NC2=O)cc1OC`
output: 96 % of control
